Data provenance is patent US20260138976A1.

# maps each entry to its pEC50
system: MV-3 cells; assay: T-cell - TCB - MV3 killing assay; assay type: cell-based, human; settings: primary human T-cells + MV-3 RFP cells, MCSP-TCB 1.5 pM-5 pM, 120 hours imaging; read-out: MSCP TCB killing MV-3 cells 5 d EC50
Bear in mind: pEC50 is minus log10 of a mol/L concentration; give just that figure.

[in] Give its pEC50 value. Item: CC(N)(c1nnc(-c2ccc3c(c2)N(Cc2ccc(-c4noc(C(F)(F)F)n4)cc2)C(=O)[C@@H](N)CS3(=O)=O)o1)C(F)(F)F (stereo partly drawn) [Example 32]
[out] 6.92

[in] Check COC(F)(c1nnc(-c2ccc3c(c2)N(Cc2ccc(-c4noc(C(F)(F)F)n4)cc2)C(=O)[C@@H](N)CS3(=O)=O)o1)C(F)(F)F (stereo partly drawn) [Example 37] too.
[out] 7.24

***
[in] Give its pEC50 value. Item: Cn1nc(C(F)(F)F)cc1-c1ccc(CN2C(=O)[C@@H](N)CS(=O)(=O)c3ccc(-c4nnc(C(C)(C)C)o4)cc32)cc1 [Example 92]
[out] 6.92

====

target: DGK α kinase (Homo sapiens, UniProt P23743); construct: purchased Reaction Biology Corp. (contract assay service); experiment: DGKalpha kinase ADP Glo assay run by Reaction Biology Corp.; format: biochemical; conditions: 2 nM kinase, 50 µM ATP, 500 μM DLG, 10-dose duplicate
Sequence (P23743 whole entry): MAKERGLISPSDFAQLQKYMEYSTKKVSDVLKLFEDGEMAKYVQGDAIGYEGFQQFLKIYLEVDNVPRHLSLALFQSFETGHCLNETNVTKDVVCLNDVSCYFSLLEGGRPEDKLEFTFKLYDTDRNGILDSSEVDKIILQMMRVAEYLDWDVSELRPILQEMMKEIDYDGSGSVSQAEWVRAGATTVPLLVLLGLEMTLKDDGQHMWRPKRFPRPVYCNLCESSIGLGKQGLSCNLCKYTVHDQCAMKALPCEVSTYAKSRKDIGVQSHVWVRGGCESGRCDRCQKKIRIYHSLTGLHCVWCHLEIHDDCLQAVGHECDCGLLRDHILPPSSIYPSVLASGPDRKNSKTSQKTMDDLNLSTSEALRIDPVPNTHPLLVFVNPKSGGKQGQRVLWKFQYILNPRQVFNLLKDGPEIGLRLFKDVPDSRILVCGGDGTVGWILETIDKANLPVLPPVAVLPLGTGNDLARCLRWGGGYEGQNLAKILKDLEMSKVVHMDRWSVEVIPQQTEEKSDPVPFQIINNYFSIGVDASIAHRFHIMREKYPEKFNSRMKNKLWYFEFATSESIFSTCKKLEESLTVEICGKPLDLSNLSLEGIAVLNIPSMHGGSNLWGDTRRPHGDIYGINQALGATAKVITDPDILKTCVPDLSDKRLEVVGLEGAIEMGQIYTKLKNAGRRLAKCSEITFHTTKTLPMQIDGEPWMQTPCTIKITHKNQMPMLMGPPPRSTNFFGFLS
Response field label: string, one of Satisfied (IC50 strictly below 200 nM) or Not satisfied.

Worked set:
[in] Record C[C@](N)(c1nnc(-c2ccc3c(c2)N(Cc2ccc(-c4noc(C(F)(F)F)n4)cc2)C(=O)[C@@H](N)CS3(=O)=O)o1)C(F)(F)F [Example 53] : is its IC50 strictly below 200 nM?
[out] Satisfied

[in] Check N[C@H]1CS(=O)(=O)c2ccc(-c3nnc(N4CCOC(F)(F)C4)o3)cc2N(Cc2ccc(-c3noc(C(F)(F)F)n3)cc2)C1=O [Example 78] too.
[out] Satisfied

[in] Check CC(N)(c1nnc(-c2ccc3c(c2)N(Cc2ccc(-c4noc(C(F)(F)F)n4)cc2)C(=O)[C@@H](N)CS3(=O)=O)o1)C(F)(F)F (stereo partly drawn) [Example 32] too.
[out] Satisfied

[in] Check N[C@H]1CS(=O)(=O)c2ccc(-c3nnc(C4(C5CC5)CCCO4)o3)cc2N(Cc2ccc(-c3noc(C(F)(F)F)n3)cc2)C1=O (stereo partly drawn) [Example 36] too.
[out] Satisfied

[in] Check CC(C)(C#N)c1nnc(-c2ccc3c(c2)N(Cc2ccc(-c4ccc(C(F)(F)F)cn4)cc2)C(=O)[C@@H](N)CS3(=O)=O)o1 [Example 47] too.
[out] Not satisfied

***
[in] Record Cc1noc(-c2ccc(CN3C(=O)[C@@H](N)CS(=O)(=O)c4ccc(-c5nnc(C(C)(C)C)o5)cc43)cc2)n1 [Example 20] : is its IC50 strictly below 200 nM?
[out] Not satisfied

====

tested on: primary human T-cells; experiment: IL2 secretion measurements (24 h, CD3-stimulated T-cells, PBS counter screen); assay type: cell-based; conditions: CD3 condition; normalised to DMSO (neutral) and 20 μM reference compound A1 = 100%
Binary classification by Emax IL2 (% activation), with 90 % activation as an inclusive lower bound for 1; all other cases are 0.

Worked set:
[in] Is the recorded value of Emax IL2 (% activation) equal to or greater than 90 % activation for this compound? "N[C@H]1CS(=O)(=O)c2ccc(-c3nnc(N4CCOC(F)(F)C4)o3)cc2N(Cc2ccc(-c3nnc(C(F)F)o3)cc2)C1=O"
[out] 0

[in] Check "Cn1nc(C(F)(F)F)cc1-c1ccc(CN2C(=O)[C@@H](N)CS(=O)(=O)c3ccc(-c4nnc(C(C)(C)C#N)o4)cc32)cc1" too.
[out] 1

[in] Check N[C@H]1CS(=O)(=O)c2ccc(-c3nnc(N4CCOC(C(F)(F)F)C4)o3)cc2N(Cc2ccc(-c3noc(C(F)(F)F)n3)cc2)C1=O (stereo partly drawn) too.
[out] 1

[in] Check COCC1CN(c2nnc(-c3ccc4c(c3)N(Cc3ccc(-c5noc(C(F)(F)F)n5)cc3)C(=O)[C@@H](N)CS4(=O)=O)o2)CCO1 (stereo partly drawn) too.
[out] 1

***
[in] Is the recorded value of Emax IL2 (% activation) equal to or greater than 90 % activation for this compound? "N[C@H]1CS(=O)(=O)c2ccc(-c3nnc(C4(N)CCCCC4)o3)cc2N(Cc2ccc(-c3ccc(C(F)(F)F)cn3)cc2)C1=O"
[out] 0

====

test system: primary human T-cells; assay: IL2 secretion measurements (24 h, CD3-stimulated T-cells, PBS counter screen); format: cell-based; conditions: CD3 condition; normalised to DMSO (neutral) and 20 μM reference compound A1 = 100%
# maps each entry to its Emax IL2 (% activation)
Numeric only. Scale: % activation

Example entries begin here.
[in] Give its Emax IL2 (% activation) value. Item: "N[C@H]1CS(=O)(=O)c2ccc(-c3nnc(N4CCOC(F)(F)C4)o3)cc2N(Cc2ccc(-c3nnc(C(F)(F)F)o3)cc2)C1=O"
[out] 360

[in] Check "CC(C)(C#N)c1nnc(-c2ccc3c(c2)N(Cc2ccc(-c4noc(C(F)(F)F)n4)cc2)C(=O)[C@@H](N)CS3(=O)=O)o1" too.
[out] 311

[in] Check "CC(C)(C)c1nnc(-c2ccc3c(c2)N(Cc2ccc(-c4cc(C(F)(F)F)no4)cc2)C(=O)[C@@H](N)CS3(=O)=O)o1" too.
[out] 133

[in] Check "CC(C)(C#N)c1nnc(-c2ccc3c(c2)N(Cc2ccc(-c4ccc(OC(F)(F)F)cc4)nc2)C(=O)[C@@H](N)CS3(=O)=O)o1" too.
[out] 102

[in] Check NC(c1nnc(-c2ccc3c(c2)N(Cc2ccc(-c4noc(C(F)(F)F)n4)cc2)C(=O)[C@@H](N)CS3(=O)=O)o1)C(F)(F)F (stereo partly drawn) too.
[out] 76

[in] Check "CC(C)(C#N)c1nnc(-c2ccc3c(c2)N(Cc2ccc(-c4ncc(C(F)(F)F)o4)cc2)C(=O)[C@@H](N)CS3(=O)=O)o1" too.
[out] 146

[in] Check "N[C@H]1CS(=O)(=O)c2cc(F)c(-c3nnc(N4CCOC5(CC5)C4)o3)cc2N(Cc2ccc(-c3noc(C(F)(F)F)n3)cc2)C1=O" too.
[out] 220

[in] Check "N[C@H]1CS(=O)(=O)c2ccc(-c3nnc(N4CCC(F)(F)CC4)o3)cc2N(Cc2ccc(-c3noc(C(F)(F)F)n3)cc2)C1=O" too.
[out] 351

[in] Check "N[C@H]1CS(=O)(=O)c2ccc(-c3nnc(N4CCC(F)(F)CC4)o3)cc2N(Cc2ccc(-c3nnc(C(F)(F)F)o3)cc2)C1=O" too.
[out] 111

[in] Check "CC(C)(C#N)c1nnc(-c2ccc3c(c2)N(Cc2ccc(-c4ccc(C(F)(F)F)cc4)nc2)C(=O)[C@@H](N)CS3(=O)=O)o1" too.
[out] 121

***
[in] Give its Emax IL2 (% activation) value. Item: "CC1(Nc2nnc(-c3cc4c(cc3F)S(=O)(=O)C[C@H](N)C(=O)N4Cc3ccc(-c4noc(C(F)(F)F)n4)cc3)o2)CC(F)(F)C1"
[out] 594

[in] Check "CC(C)(C)c1nnc(-c2ccc3c(c2)N(Cc2ccc(-c4nc(C(F)(F)F)co4)cc2)C(=O)[C@@H](N)CS3(=O)=O)o1" too.
[out] 182

[in] Check "C[C@@](N)(c1nnc(-c2ccc3c(c2)N(Cc2ccc(-c4ccc(OC(F)(F)F)cn4)cc2)C(=O)[C@@H](N)CS3(=O)=O)o1)C(F)(F)F" too.
[out] 193

[in] Check "CC(C)(C#N)c1nnc(-c2cc3c(cc2F)S(=O)(=O)C[C@H](N)C(=O)N3Cc2ccc(-c3ccc(C(F)(F)F)cn3)cc2)o1" too.
[out] 121

[in] Check CC(O)(c1nnc(-c2ccc3c(c2)N(Cc2ccc(-c4noc(C(F)(F)F)n4)cc2)C(=O)[C@@H](N)CS3(=O)=O)o1)C(F)(F)F (stereo partly drawn) too.
[out] 232

[in] Check "CC(C)(C#N)c1nnc(-c2ccc3c(c2)N(Cc2ccc(-c4ccc(OC(F)F)cn4)cc2)C(=O)[C@@H](N)CS3(=O)=O)o1" too.
[out] 245

[in] Check "N[C@H]1CS(=O)(=O)c2ccc(-c3noc(C4(N)COC4)n3)cc2N(Cc2ccc(-c3noc(C(F)(F)F)n3)cc2)C1=O" too.
[out] 33

[in] Check CC(c1nc(-c2ccc(CN3C(=O)[C@@H](N)CS(=O)(=O)c4ccc(-c5nnc(C6(N)CCCCC6)o5)cc43)cc2)no1)C(F)(F)F (stereo partly drawn) too.
[out] 97

[in] Check "CC(C)(c1nnc(-c2ccc3c(c2)N(Cc2ccc(-c4ccc(OC(F)(F)F)cn4)cc2)C(=O)[C@@H](N)CS3(=O)=O)o1)C(F)(F)F" too.
[out] 123

[in] Check "N[C@H]1CS(=O)(=O)c2ccc(-c3nnc(N4CCOC(F)(F)C4)o3)cc2N(Cc2ccc(-c3noc(C(F)(F)F)n3)cc2)C1=O" too.
[out] 216

[in] Check "CC(C)(c1nnc(-c2ccc3c(c2)N(Cc2ccc(-c4noc(C(F)(F)F)n4)cc2)C(=O)[C@@H](N)CS3(=O)=O)o1)C(F)(F)F" too.
[out] 385

[in] Check "CC(C)(C#N)c1nnc(-c2ccc3c(c2)N(Cc2ccc(-c4ccc(C(F)F)cn4)cc2)C(=O)[C@@H](N)CS3(=O)=O)o1" too.
[out] 105

[in] Check COC(F)(c1nnc(-c2ccc3c(c2)N(Cc2ccc(-c4noc(C(F)(F)F)n4)cc2)C(=O)[C@@H](N)CS3(=O)=O)o1)C(F)(F)F (stereo partly drawn) too.
[out] 198

[in] Check N[C@H]1CS(=O)(=O)c2ccc(-c3nnc(C4(N)CCCCC4)o3)cc2N(Cc2ccc(-c3noc(C4CCC(F)(F)C4)n3)cc2)C1=O (stereo partly drawn) too.
[out] 112
